# system: human CYP11B1 (Homo sapiens, UniProt P15538)
# Sequence (P15538 25-503): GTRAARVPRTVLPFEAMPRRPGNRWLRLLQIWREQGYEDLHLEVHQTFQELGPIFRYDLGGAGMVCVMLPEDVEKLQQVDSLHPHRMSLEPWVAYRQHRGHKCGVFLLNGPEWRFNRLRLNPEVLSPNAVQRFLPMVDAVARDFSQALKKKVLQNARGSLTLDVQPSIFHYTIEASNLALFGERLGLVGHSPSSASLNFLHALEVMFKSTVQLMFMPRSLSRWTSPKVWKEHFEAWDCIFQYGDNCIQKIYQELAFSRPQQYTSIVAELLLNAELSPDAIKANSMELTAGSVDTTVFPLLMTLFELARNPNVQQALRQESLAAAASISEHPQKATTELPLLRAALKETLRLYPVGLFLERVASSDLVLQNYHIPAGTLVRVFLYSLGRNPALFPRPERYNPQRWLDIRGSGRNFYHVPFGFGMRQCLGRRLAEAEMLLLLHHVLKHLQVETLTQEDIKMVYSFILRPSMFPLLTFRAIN
# experiment: G-402 cellular enzyme assay, human CYP11B1 (cortisol release, HTRF)
# assay.context: G-402 cells, 1 μM Deoxycortisol
outcome.measure: EC50 (µM)
Express it in µM; write the number only.

Entry `O=C1c2ccc(Cl)cc2CCN1c1cncc(CN2CCCS2(=O)=O)c1` , system human CYP11B1 (Homo sapiens, UniProt P15538): what EC50 was measured?
0.597

Request body: readout EC50, system human CYP11B1 (Homo sapiens, UniProt P15538), query CC(=O)N[C@H]1CCCc2c1cncc2N1C(=O)c2ccc(Cl)cc2[C@@H]1C (single isomer, unassigned) . Return the value.
15.9

Which EC50 is reported with human CYP11B1 (Homo sapiens, UniProt P15538) for this entry: CCC(=O)NC1CCCc2c1cncc2N1CCc2cc(Cl)ccc2C1=O (stereo not shown) [Example 29] ?
12.9

Enter reported EC50 observed with human CYP11B1 (Homo sapiens, UniProt P15538) for CC(Nc1cccc(F)c1)c1cncc(N2CCc3cc(Cl)ccc3C2=O)c1 (stereo not shown)
0.163
